# System: MDA-MB-468 breast
# test-summary: NCI-60 one-dose screen, 48 h (100 = growth as untreated, 0 = no growth, -100 = all killed)
# conditions-used: 10 µM unless noted
Compounds without any hit were thinned out: in the full panel of roughly 83,000, 20% have a hit.
readout-name: growth (%)
Give the value, in units of %, as a plain number.

Record excerpt, results attached:
INSERT INTO measurements (smiles_record, study_target, readout_name, result_units, measured_value) VALUES
  ('CCOC(=O)C1CCN(S(=O)(=O)/N=C2/NC(=O)NC2=C(Cl)Cl)CC1', 'MDA-MB-468 breast', 'growth', '%', -22.2),
  ('O=[N+]([O-])c1ccccc1CN1CCCCC1', 'MDA-MB-468 breast', 'growth', '%', 89.3),
  ('O=C1c2cccc3cccc(c23)C(=O)N1N1C(=O)c2cccc3c(NC4CCCCC4)ccc(c23)C1=O', 'MDA-MB-468 breast', 'growth', '%', 100);

Let us move to another entry and its growth.
Q) Need growth of c1ccc(Cn2cc3c(c2-c2ccccc2)CCc2cnoc2-3)cc1 , thanks.
A) 66.5

====

# Tested on: MDA-MB-468 breast
# test-summary: NCI-60 one-dose screen, 48 h (100 = growth as untreated, 0 = no growth, -100 = all killed)
# conditions-used: 10 µM unless noted
This is part of a sample that, as a whole, favours compounds with a hit. Of some 83,000 tested, about 20% had one in any assay.
Listing: growth of selected molecules
Give the value, in units of %, as a plain number.

Record excerpt, results attached:
INSERT INTO measurements (molecule, readout_name, result_units, measured_value) VALUES
  ('CC(C)=CCc1cc2c(cc1O)C1=C(C(=O)C3=C(C1=O)S(=O)(=O)CCN3)C(C=C(C)C)O2 (stereo unspecified)', 'growth', '%', -33.5),
  ('Cc1nc2ccccc2c(C(=O)O)c1O', 'growth', '%', 99.9),
  ('COc1cccc(-c2nc3occn3c2-c2ccnc(NCCCNS(=O)(=O)c3ccc(C(F)(F)F)cc3)n2)c1', 'growth', '%', 81.6),
  ('COc1ccc(C2=NN(C(C)=O)C(c3ccc(Oc4ccnc5cc(Cl)ccc45)c(OC)c3)C2)cc1 (stereo unspecified)', 'growth', '%', 54),
  ('CC(C)(C)c1ccc(OCCCCCCN2CCNCC2)cc1', 'growth', '%', 10.6),
  ('CN1C(=O)N(C)C2NC(N/N=C/c3ccccc3)=NC21 (stereo unspecified)', 'growth', '%', 95.9);

Q) Lab note: need growth for COc1cc(Br)c(OC)cc1Br on MDA-MB-468 breast, anyone have it?
A) 95.5

Q) Can you handle O=C(O)c1cccc(S(=O)(=O)c2ccccc2)c1 next?
A) 94.7

====

# Test system: MDA-MB-468 breast
# test-summary: NCI-60 one-dose screen, 48 h (100 = growth as untreated, 0 = no growth, -100 = all killed)
# conditions-used: 10 µM unless noted
The panel holds about 83,000 compounds, 20% with a hit somewhere; the sample as a whole holds those more often.
readout-name: growth (%)
Give the value, in units of %, as a plain number.

Record excerpt, results attached:
INSERT INTO measurements (compound, measured_value) VALUES
  ('CCOC(=O)C1=C(C)N=C2SC=C(c3ccc(F)cc3)N2[C@H]1c1cn(-c2ccccc2)nc1-c1ccc(Cl)cc1', 91.1),
  ('COc1ccc(CN2C(=O)/C(=C/c3nc(CO)cs3)SC2=S)cc1', 31.7),
  ('O=C1NC(=O)[C@@H](c2cn3c4c(cccc24)CCC3)[C@@H]1c1c[nH]c2ccccc12', -0.826),
  ('COc1cc2oc(-c3cccc(C(=O)Nc4ccc(Br)cc4)c3)cc(=O)c2c(OC)c1OC', 64.3),
  ('CC1=C2C(=C[C@@](C)(CO)[C@@H]2OC(=O)N(C)CCN(C)C(=O)OC(C)(C)C)C(=O)[C@](C)(O)C12CC2', -10.1),
  ('O=C(O)/C(=C/c1ccc(O)cc1)c1ccccc1', 96.9),
  ('OCCc1ccc(Cl)cc1', 103),
  ('CCNc1nc(-c2ccc(F)cc2)c(C#N)c(=O)n1C', 45),
  ('NC(=O)NCCO', 102),
  ('Cn1cccc1C(=O)C1C(c2cccc([N+](=O)[O-])c2)C2C3CCCCC3CN2C12C(=O)Nc1ccc(Cl)cc12 (configuration not stated)', 32);

Let us move to another entry and its growth.
Q) Need growth of BrC(Br)(Br)c1cnc2ccccc2n1 , thanks.
A) -24.8
